For each entry below, report its CC50 at 24 h value.
Assay: in vitro
Conditions: rat, gh3-tre-luc cells, AC50 (uM) modified / 1000

Problem: Which value of CC50 at 24 h has been reported for CCCCCCC(C)OC(=O)COc1nc(F)c(Cl)c(N)c1Cl (centres unmarked) in the records?
Solution: 51.1 µM

In the following, a different molecule is considered.
Problem: Which CC50 at 24 h is reported for this molecule? C[C@H]1O[C@@H](O[C@H]2CC[C@@]3(C)[C@H](CC[C@@H]4[C@@H]3C[C@@H](O)[C@]3(C)[C@@H](C5=CC(=O)OC5)CC[C@]43O)C2)C[C@H](O)[C@@H]1O[C@H]1C[C@H](O)[C@H](O[C@H]2C[C@H](O)[C@H](O[C@@H]3O[C@H](CO)[C@@H](O)[C@H](O)[C@H]3O)[C@@H](C)O2)[C@@H](C)O1 [Deslanoside]
Solution: > 50 µM
